Test system: ACHN
ASSAY_NAME: NCI tumour cell line growth inhibition, 48 h
Active and inactive are the calls of the source. No stated cut-off is given here; in the data, active = GI50 up to about 1.1 µM and inactive = higher.
Give your call using only these classes: Y for active, N for inactive

Answered cases to consult:
| COMPOUND | LABEL |
| --- | --- |
| CO[C@H]1Nc2c(ccc(C)c2O)C(=O)N2C=C(/C=C/C(N)=O)C[C@@H]12 | Y |
| Clc1ccc(OCc2nnc3n2N=C(c2ccc(Br)cc2)CS3)cc1 | N |
| COC(=O)c1c(C)cccc1CC1Cc2c(C)cccc2C1=O (centres undefined) | N |
| COc1c2c(c(OC)c3c(=O)cc(C/C(=N/NC(=O)C[n+]4ccccc4)C(=O)Nc4cc(C)ccc4C)oc13)OCO2 | N |
| COc1cc2c(cc1OC)C1Cc3cc(OC)c(OC)cc3C(C2)N1C | N |
| N#Cc1c(-c2ccccc2)c(C=O)c(=O)n2c1[nH]c1ccccc12 | N |
| O=[N+]([O-])c1cccc2nc3ccccc3c(NCCCn3ccnc3[N+](=O)[O-])c12 | Y |
| CCCC[P+](CCCC)(CCCC)C(C(=O)OC)C(C(=O)OC)=C1SC(C(=O)OC)=C(C(=O)OC)S1 (centres undefined) | N |

Attention now shifts to the item below.
Status in this test for NC(=O)CCC(NC(=O)c1cccc2c(=O)c3ccccc3[nH]c12)C(=O)O (centres undefined) ?
N

----------
System: MDA-MB-231
ASSAY_NAME: NCI tumour cell line growth inhibition, 48 h
The source made the active and inactive calls. No stated cut-off is given here; in the data, active = GI50 up to about 1.1 µM and inactive = higher.
Would you mind answering with one of these outcomes? 1 = active, 0 = inactive

| COMPOUND | MEASURED_TARGET | LABEL |
| --- | --- | --- |
| CCN(CC)c1nc(N(C)C)c2cc(OC)ccc2n1 | MDA-MB-231 | 0 |
| S=C1c2ccc(Cl)cc2-n2cnnc2C2CSCN12 (configuration not stated) | MDA-MB-231 | 0 |
| C=CCN(Cc1ccncc1)C(=O)C(O)(c1ccccc1)c1ccccc1 | MDA-MB-231 | 0 |
| CCOC(=O)/C(C#N)=C/c1ccc2c(-c3c(OCC)ccc4cc(/C=C(\C#N)C(=O)OCC)ccc34)c(OCC)ccc2c1 | MDA-MB-231 | 0 |

Per the records of this test, what outcome belongs to CNC(=O)N1CN(c2ccccc2)C2(CCN(Cc3ccccc3)CC2)C1=O ?
0

Outcome logged for Cc1cc(N(CCC#N)S(=O)(=O)c2ccccc2)ccc1/C=N/c1ccc(C(=O)O)cc1 in this assay:
0

Which result was noted for this compound in the test: COc1ccc(C2=CN3CCC[C@H]3C=C2c2cc(O)c(OC)c(OC)c2)cc1OC
1

Name the outcome recorded for Cc1nc(-c2ccccc2)c(C)n2c1nc1ccccc12 in the assay.
0

Would you mind telling me which call this test gave N#CC12CNCC1CN=N2 (configuration not stated) ?
0

Assay outcome for C=C1CC(Cn2cc(Br)c(=O)[nH]c2=O)(c2ccc(-c3ccccc3)cc2)OC1=O (configuration not stated) : what was it?
0

Could you kindly confirm the outcome this assay logged for S=C1Cc2c(-c3ccc(Cl)cc3)cc(-c3ccccc3)nc2-c2ccccc2N1 ?
0

Name the outcome recorded for CC(O)c1cc2c(s1)C(=O)c1sccc1C2=O (configuration not stated) in the assay.
1

// outcome(item) with item = CC(=O)CSCc1ccccn1
0

----------
System: Malme-3M
ASSAY_NAME: NCI tumour cell line growth inhibition, 48 h
Calls of active or inactive are those of the source. Rule as the data show it: active = GI50 up to about 1.1 µM and inactive = higher. Positions of bridges follow the written chain, without caps; N, C: chain ends. Residues, ends and D or L forms follow the SMILES beside them.
Here, each record is paired with measured GI50 data.

Solved cases below.
| MOLECULE | EXPERIMENTAL_VALUE |
| --- | --- |
| O=C(O)CNS(=O)(=O)c1ccc(NC(=O)c2cccc([N+](=O)[O-])c2)cc1 | > 100 µM (inactive) |
| O=C(Nc1ccc(-c2cn3ccccc3n2)cc1)c1cc(Br)ccc1O | > 100 µM (inactive) |
| CCCCCC(C[N+]1(C)CCOCC1)C(=O)/C=C/c1ccccc1 (centres undefined) | 16.9 µM (inactive) |
| CC(=O)Oc1cc2c(c3ncccc13)OC(C)(C)C2 | 11 µM (inactive) |
| Cc1ccc([S@+]([O-])c2occc2C=O)cc1 | 3.7 µM (inactive) |

Fill in GI50 for record O=C1NC(=O)[C@@]2(CC[C@@H](O)C2)c2ccncc21 [SESBANINE]
> 100 µM (inactive)

Annotate the molecule COC(=O)C1CCC(=O)NCCCCC(NC(=O)C(N)CC(=O)O)C(=O)N1 (stereo not drawn) (H-Asp-Lys-Glu-OMe; lactam 2-3; configuration not given here) with its measured GI50.
> 100 µM (inactive)

Output measured GI50 for this item: CC(=O)N1c2ccccc2N(C(C)=O)C1c1ccc(C2N(C(C)=O)c3ccccc3N2C(C)=O)[nH]1
> 100 µM (inactive)

Give GI50 for N#CNc1nc(N)c(-c2ccc(Cl)cc2)c(C(=O)Nc2nccs2)n1
> 100 µM (inactive)

Origin of values: ChEMBL document CHEMBL1201862
